Test system: HCT-15
protocol_description: Antiproliferative activity against human HCT-15 cells after 72 hrs by EZ-Cytox colorimetric assay
Assay type: functional, cell-based
condition: HCT-15, 72 h
parameter: IC50

The following compounds have reported results that may help.
O=C1c2ccccc2-c2nc(-c3ccc(C(F)(F)F)cc3)cc(-c3ccccc3)c21: 20.5 µM
O=C1c2ccccc2-c2nc(-c3cccc(Br)c3)cc(-c3ccccc3)c21: 17.9 µM
OC1c2ccccc2-c2nc(-c3ccc(Cl)cc3)cc(-c3ccccc3)c21 (centres undefined): > 50 µM
OC1c2ccccc2-c2nc(-c3ccc(OC(F)(F)F)cc3)cc(-c3ccccc3)c21 (centres undefined): > 50 µM
OC1c2ccccc2-c2nc(-c3ccc(F)cc3)cc(-c3ccccc3)c21 (centres undefined): > 50 µM
OC1c2ccccc2-c2nc(-c3cccc(OC(F)(F)F)c3)cc(-c3ccccc3)c21 (centres undefined): > 50 µM
O=C1c2ccccc2-c2nc(-c3ccc(F)cc3)cc(-c3ccccc3)c21: 33.3 µM
O=C1c2ccccc2-c2nc(-c3ccccc3OC(F)(F)F)cc(-c3ccccc3)c21: 14.7 µM
O=C1c2ccccc2-c2nc(-c3cccc(Cl)c3)cc(-c3ccccc3)c21: 23.4 µM
O=C1c2ccccc2-c2nc(-c3cccc(C(F)(F)F)c3)cc(-c3ccccc3)c21: 21.5 µM

Fill in IC50 for each of the 4 compounds listed.
1. OC1c2ccccc2-c2nc(-c3ccc(Br)cc3)cc(-c3ccccc3)c21 (centres undefined)
2. OC1c2ccccc2-c2nc(-c3ccccc3Br)cc(-c3ccccc3)c21 (centres undefined)
3. O=C1c2ccccc2-c2nc(-c3cccc(F)c3)cc(-c3ccccc3)c21
4. OC1c2ccccc2-c2nc(-c3cccc(Cl)c3)cc(-c3ccccc3)c21 (centres undefined)

1. > 50 µM
2. 7.03 µM
3. > 50 µM
4. > 50 µM
